- Test system: HeLa Kyoto;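 further: synchronized HeLa Kyoto cells (double thymidine block for G1/S, nocodazole release for mitosis), protein amounts in NP-40 versus SDS lysates quantified by mass spectrometry, three biological replicates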
- experiment: solubility change mitosis vs G1/S (difference of NP-40 vs SDS log2 ratios) (log2 ratio difference); higher = more soluble in mitosis
reported_metric: solubility change mitosis (log2)
Enter a number only.

Give the reported value of solubility change mitosis (log2) for this record: MGKGCKVVVCGLLSVGKTAILEQLLYGNHTIGMEDCETMEDVYMASVETDRGVKEQLHLYDTRGLQEGVELPKHYFSFADGFVLVYSVNNLESFQRVELLKKEIDKFKDKKEVAIVVLGNKIDLSEQRQVDAEVAQQWAKSEKVRLWEVTVTDRKTLIEPFTLLASKLSQPQSKSSFPLPGRKNKGNSNSEN [NKIRAS1]
-0.0109

Give the reported value of solubility change mitosis (log2) for this record: MGTPGEGLGRCSHALIRGVPESLASGEGAGAGLPALDLAKAQREHGVLGGKLRQRLGLQLLELPPEESLPLGPLLGDTAVIQGDTALITRPWSPARRPEVDGVRKALQDLGLRIVEIGDENATLDGTDVLFTGREFFVGLSKWTNHRGAEIVADTFRDFAVSTVPVSGPSHLRGLCGMGGPRTVVAGSSDAAQKAVRAMAVLTDHPYASLTLPDDAAADCLFLRPGLPGVPPFLLHRGGGDLPNSQEALQKLSDVTLVPVSCSELEKAGAGLSSLCLVLSTRPHS [DDAH2]
0.0772

Give the reported value of solubility change mitosis (log2) for this record: MAMQMQLEANADTSVEEESFGPQPISRLEQCGINANDVKKLEEAGFHTVEAVAYAPKKELINIKGISEAKADKILAEAAKLVPMGFTTATEFHQRRSEIIQITTGSKELDKLLQGGIETGSITEMFGEFRTGKTQICHTLAVTCQLPIDRGGGEGKAMYIDTEGTFRPERLLAVAERYGLSGSDVLDNVAYARAFNTDHQTQLLYQASAMMVESRYALLIVDSATALYRTDYSGRGELSARQMHLARFLRMLLRLADEFGVAVVITNQVVAQVDGAAMFAADPKKPIGGNIIAHASTTRLYLRKGRGETRICKIYDSPCLPEAEAMFAINADGVGDAKD [RAD51]
-0.238

Give the reported value of solubility change mitosis (log2) for this record: MAAVVALSLRRRLPATTLGGACLQASRGAQTAAATAPRIKKFAIYRWDPDKAGDKPHMQTYEVDLNKCGPMVLDALIKIKNEVDSTLTFRRSCREGICGSCAMNINGGNTLACTRRIDTNLNKVSKIYPLPHMYVIKDLVPDLSNFYAQYKSIEPYLKKKDESQEGKQQYLQSIEEREKLDGLYECILCACCSTSCPSYWWNGDKYLGPAVLMQAYRWMIDSRDDFTEERLAKLQDPFSLYRCHTIMNCTRTCPKGLNPGKAIAEIKKMMATYKEKKASV [SDHB]
-0.00338

Give the reported value of solubility change mitosis (log2) for this record: MAAPLELSCWGGGWGLPSVHSESLVVMAYAKFSGAPLKVNVIDNTWRGSRGDVPILTTEDDMVSQPAKILNFLRKQKYNADYELSAKQGADTLAYIALLEEKLLPAVLHTFWVESDNYFTVTKPWFASQIPFPLSLILPGRMSKGALNRILLTRGQPPLYHLREVEAQIYRDAKECLNLLSNRLGTSQFFFGDTPSTLDAYVFGFLAPLYKVRFPKVQLQEHLKQLSNLCRFCDDILSSYFRLSLGGISPAGQETVDANLQKLTQLVNKESNLIEKMDDNLRQSPQLPPRKLPTLKLTPAEEENNSFQRLSP [MTX3]
0.0458

Give the reported value of solubility change mitosis (log2) for this record: MAAPVLLRVSVPRWERVARYAVCAAGILLSIYAYHVEREKERDPEHRALCDLGPWVKCSAALASRWGRGFGLLGSIFGKDGVLNQPNSVFGLIFYILQLLLGMTASAVAALILMTSSIMSVVGSLYLAYILYFVLKEFCIICIVTYVLNFLLLIINYKRLVYLNEAWKRQLQPKQD [VKORC1L1]
-0.107

Give the reported value of solubility change mitosis (log2) for this record: MLPLSLLKTAQNHPMLVELKNGETYNGHLVSCDNWMNINLREVICTSRDGDKFWRMPECYIRGSTIKYLRIPDEIIDMVKEEVVAKGRGRGGLQQQKQQKGRGMGGAGRGVFGGRGRGGIPGTGRGQPEKKPGRQAGKQ [LSM4]
0.187

Give the reported value of solubility change mitosis (log2) for this record: `TOLLIP`
0.0779

Give the reported value of solubility change mitosis (log2) for this record: MVIRVYIASSSGSTAIKKKQQDVLGFLEANKIGFEEKDIAANEENRKWMRENVPENSRPATGYPLPPQIFNESQYRGDYDAFFEARENNAVYAFLGLTAPPGSKEAEVQAKQQA [SH3BGRL]
-0.0943

Give the reported value of solubility change mitosis (log2) for this record: MEGVELKEEWQDEDFPIPLPEDDSIEADILAITGPEDQPGSLEVNGNKVRKKLMAPDISLTLDPSDGSVLSDDLDESGEIDLDGLDTPSENSNEFEWEDDLPKPKTTEVIRKGSITEYTAAEEKEDGRRWRMFRIGEQDHRVDMKAIEPYKKVISHGGYYGDGLNAIVVFAVCFMPESSQPNYRYLMDNLFKYVIGTLELLVAENYMIVYLNGATTRRKMPSLGWLRKCYQQIDRRLRKNLKSLIIVHPSWFIRTLLAVTRPFISSKFSQKIRYVFNLAELAELVPMEYVGIPECIKQVDQELNGKQDEPKNEQ [BNIP2]
-0.366

Give the reported value of solubility change mitosis (log2) for this record: MEGMDVDLDPELMQKFSCLGTTDKDVLISEFQRLLGFQLNPAGCAFFLDMTNWNLQAAIGAYYDFESPNISVPSMSFVEDVTIGEGESIPPDTQFVKTWRIQNSGAEAWPPGVCLKYVGGDQFGHVNMVMVRSLEPQEIADVSVQMCSPSRAGMYQGQWRMCTATGLYYGDVIWVILSVEVGGLLGVTQQLSSFETEFNTQPHRKVEGNFNPFASPQKNRQSDENNLKDPGGSEFDSISKNTWAPAPDTWAPAPDQTEQDQNRLSQNSVNLSPSSHANNLSVVTYSKGLHGPYPFGQS [C6ORF106]
-0.211

Give the reported value of solubility change mitosis (log2) for this record: MDLWPGAWMLLLLLFLLLLFLLPTLWFCSPSAKYFFKMAFYNGWILFLAVLAIPVCAVRGRNVENMKILRLMLLHIKYLYGIRVEVRGAHHFPPSQPYVVVSNHQSSLDLLGMMEVLPGRCVPIAKRELLWAGSAGLACWLAGVIFIDRKRTGDAISVMSEVAQTLLTQDVRVWVFPEGTRNHNGSMLPFKRGAFHLAVQAQVPIVPIVMSSYQDFYCKKERRFTSGQCQVRVLPPVPTEGLTPDDVPALADRVRHSMLTVFREISTDGRGGGDYLKKPGGGG [AGPAT1]
0.0448
